method_summary: TruHit bead signal quenchers or artefacts – biochemical, TruHit kit, artefact control, dose response (AID 1259339)
settings: TruHit alphaLISA kit signal interference counterscreen; series mostly up to 80 µM
Active and inactive are the calls of the source.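 How the source made its calls: active means fitted AC50 no higher than ten times the top tested dose (cut at about 90 µM in these data); inconclusive means flat curve with 30 to 70% signal loss, or bad fit; inactive means AC50 beyond ten times the top dose.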
Use one of these outcomes when replying: active, inactive

{"compound": "O=C(Nc1nc(-c2nc3ccccc3s2)cs1)c1ccco1", "category_label": "inactive"}
{"compound": "O=S(=O)(Nc1nccs1)c1ccc(-n2cccc2)cc1", "category_label": "active"}
{"compound": "O=C(COC(=O)c1cc(-c2cccs2)nc2ccccc12)NCc1ccco1", "category_label": "active"}
{"compound": "CCN1CCN(C(=O)c2cc(-c3ccco3)nc3ccccc23)CC1", "category_label": "inactive"}

What did this assay record as the result for `Cc1ccc(-c2nnc(-c3nc(Nc4nc5ccccc5s4)c4ccccc4n3)o2)cc1` ?
inactive

Short answer needed: outcome of this test for `O=C(NCCc1ccco1)c1ccc(OCc2cn3ccccc3n2)cc1` ?
inactive

Dear colleague, could you share the recorded outcome for `O=C(O)C1Oc2cc3ccccc3cc2O1` when you have a moment?
active

For `N#Cc1c(N)oc(-c2ccco2)c1-c1ccco1` , what call appears in the results of this test?
active

Which result was noted for this compound in the test: CC(C)C(CC(=O)NCc1ccco1)c1ccco1 (centres undefined)
active

====

method_summary: TruHit bead signal quenchers or artefacts – biochemical, TruHit kit, artefact control, dose response (AID 1259339)
settings: TruHit alphaLISA kit signal interference counterscreen; series mostly up to 80 µM
Calls of active or inactive are those of the source.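 How the source made its calls: active means fitted AC50 no higher than ten times the top tested dose (cut at about 90 µM in these data); inconclusive means flat curve with 30 to 70% signal loss, or bad fit; inactive means AC50 beyond ten times the top dose.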
I would appreciate it if you answered using one of these outcomes: active, inactive

{"structure_as_smiles": "CCc1ccc(Nc2nc(C(=O)NCc3ccc(N(C)C)cc3)nc3ccccc23)cc1", "category_label": "inactive"}

Look up the recorded call for `NC(=O)C1(N2CCCCC2)CCN(c2ccc(NC(=O)c3cccc(Cl)c3)cc2C(=O)O)CC1` in this test.
inactive

Just curious, what result did `O=C(O)Cc1c[nH]c2cccc(O)c12` get here?
active

Test call, this molecule: `COc1ccc(NC(=O)c2nc(Nc3ccccc3)c3ccccc3n2)cc1`
inactive

What call does the record list for `O=C(O)COc1ccc(-n2cccc2)cc1` ?
inactive

Write down the call the test reported for this molecule. Item: `COc1cccc(NC(=O)CN(C)C(=O)c2cc3c(s2)CCC3)c1`
active

====

method_summary: TruHit bead signal quenchers or artefacts – biochemical, TruHit kit, artefact control, dose response (AID 1259339)
settings: TruHit alphaLISA kit signal interference counterscreen; series mostly up to 80 µM
The source made the active and inactive calls.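 How the source made its calls: active means fitted AC50 no higher than ten times the top tested dose (cut at about 90 µM in these data); inconclusive means flat curve with 30 to 70% signal loss, or bad fit; inactive means AC50 beyond ten times the top dose.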
Hi! Could you answer with just one of these? active, inactive

{"compound": "Cn1ncc2c(NNC(=O)c3cc(O)cc(O)c3)ncnc21", "category_label": "inactive"}
{"compound": "O=C(Nc1nccs1)c1cc(-c2ccco2)nc2ccccc12", "category_label": "active"}
{"compound": "O=c1/c(=C/c2ccco2)sc2nc3ccccc3n12", "category_label": "inactive"}

Recorded test outcome, item C=CC(=O)N1CCCC2(CCN(CCN3CCCC3)C2=O)C1 (stereo unspecified)
inactive

In this assay, the call recorded for `NC(=O)C1(N2CCCCC2)CCN(c2ncc(NC(=O)c3ccc(Cl)cc3)cc2C(=O)O)CC1` was what?
active

Could you please tell me the result logged for `O=C(COC(=O)c1cc(-c2ccco2)nc2ccccc12)NCc1ccccc1` in this assay?
active

Could you kindly confirm the outcome this assay logged for `O=C(Cc1ccc(S(=O)(=O)N2CCOCC2)s1)Nc1nc2c(s1)CCCC2` ?
active

Give the logged outcome of this assay for the following compound: `COC[C@]1(O)CCN(C(=O)CCN(C)S(C)(=O)=O)CC1(C)C`
inactive

Test call for this compound, please: `O=C(Nc1nc(-c2ccco2)c(-c2ccco2)s1)C1CCC1`
active

Query: recorded result category for `O=C(Nc1nc(-c2ccco2)c(-c2ccco2)s1)c1ccc(F)cc1F` in this test
active

State the result this test recorded for `CC(=O)c1sc2nc(-c3ccco3)ccc2c1N` .
active
